Tested on: CCRIS mutagenicity, Ames/micronucleus/aberration tests
protocol.notes: CCRIS mutagenicity studies
condition.label: Test System: AMES SALMONELLA TYPHIMURIUM; Strain/Indicator: TA1535; Metabolic Activation: RAT, LIVER, S-9, AROCLOR 1254; Method: STANDARD PLATE
Calls of active or inactive are those of the source. The rule behind the calls is not given here.
Outcomes: active, inactive

# input.smiles, class.assignment
rows = [
    ("C[C@@H]1CC[C@@]2(OC1)O[C@H]1C[C@H]3[C@@H]4CC=C5C[C@@H](O)CC[C@]5(C)[C@H]4CC[C@]3(C)[C@H]1[C@@H]2C", "inactive"),
    ("Nc1ncn([C@@H]2O[C@H](CO)[C@@H](O)[C@H]2O)c(=O)n1", "active"),
    ("O=C(O)C[C@H](NC(=O)COc1ccc(Cl)cc1Cl)C(=O)O", "inactive"),
    ("O=C(CCl)NCO", "inactive"),
    ("Nc1nc(Cl)cc(Cl)n1", "inactive"),
    ("C/C=C/c1cc(OC)c(OC)cc1OC", "inactive"),
]

---

Test system: CCRIS mutagenicity, Ames/micronucleus/aberration tests
protocol.notes: CCRIS mutagenicity studies
condition.label: Test System: AMES SALMONELLA TYPHIMURIUM; Strain/Indicator: TA1537; Metabolic Activation: RAT, LIVER, S-9, AROCLOR 1254; Method: STANDARD PLATE
Activity calls are given as the source filed them. The rule behind the calls is not given here. Where a SMILES comes first, the peptide text is derived from it. [ ]: non-standard residue; d: D form. pGlu = O=C1CC[C@@H](C(=O)O)N1; Thz = O=C(O)[C@@H]1CSCN1
Outcomes: active, inactive

# compound, class.assignment
rows = [
    ("c1ccc2c(c1)ccc1nc3ccc4ccccc4c3cc12", "active"),
    ("O=C(O)CNCP(=O)(O)O", "inactive"),
    ("Cc1ccc(C(=O)n2ncc(Cl)c(Cl)c2=O)cc1", "inactive"),
    ("C=C(C)C(=O)OCCO", "inactive"),
    ("CC(=O)O[C@@H]1[C@@H](O)[C@H](O[C@H]2[C@H](OC(=O)[C@H]3CC[C@@H]4[C@H](C3)O[C@@]3(C[C@H](OC(=O)/C=C/c5ccccc5)[C@H](C)CO3)[C@]43CO3)O[C@H](C)[C@@H](O)[C@@H]2OC(C)=O)O[C@H](C)[C@H]1O", "inactive"),
    ("CC1(S(=O)(=O)O)CC(=O)c2ccccc2C1=O (stereo unspecified) (tested in a mixture with another compound)", "inactive"),
    ("O=C(CCNNC(=O)c1ccncc1)NCc1ccccc1", "inactive"),
    ("Nc1ccc(-c2ccccc2)cc1", "active"),
    ("C=C(C)C(=O)OCCCCCCOC(=O)C(=C)C", "inactive"),
    ("C1COCCOCCOCCOCCOCCOCCO1", "inactive"),
    ("O=C1CC[C@@H](C(=O)N2CSC[C@H]2C(=O)O)N1 ([pGlu]-[Thz]-OH)", "inactive"),
    ("Nc1cc2c(O)c(N=Nc3ccc(N=Nc4ccc(S(=O)(=O)O)cc4)c4ccc(S(=O)O)cc34)c(S(=O)(=O)O)cc2cc1S(=O)(=O)O", "inactive"),
    ("O=C([O-])c1ccccn1.O=C([O-])c1ccccn1.O=C([O-])c1ccccn1.[Cr+3]", "inactive"),
    ("O=C(CCl)NCO", "inactive"),
    ("C=CC(=O)OCCCCC", "inactive"),
    ("C1COCCOCCOCCOCCO1", "inactive"),
    ("CC(C)n1c(/C=C/[C@H](O)C[C@H](O)CC(=O)O)c(-c2ccc(F)cc2)c2ccccc21", "inactive"),
    ("CCN(CC)CCCC(C)Nc1ccnc2cc(Cl)ccc12 (stereo unspecified)", "inactive"),
    ("Cn1c([N+](=O)[O-])cnc1C(O)c1cc(C(C)(C)C)cc(C(C)(C)C)c1O (stereo unspecified)", "inactive"),
    ("O.O.O.O=C([O-])[C@H]([O-])[C@@H]([O-])C(=O)[O-].O=C([O-])[C@H]([O-])[C@@H]([O-])C(=O)[O-].[K+].[K+].[Sb+3].[Sb+3]", "inactive"),
    ("CC(C)N(C(=O)SCC(Cl)=C(Cl)Cl)C(C)C", "inactive"),
]
